// data source = patent US4576948A

Measured CMP 3H--dGMP inc., listed per entry for reference.
STUDY_TARGET: terminal deoxyribonucleotidyl transferase (TdT) (Bos taurus, UniProt P06526)
Construct: classical preparation may be proteolysed two-subunit form of one gene product
Sequence (P06526 whole entry): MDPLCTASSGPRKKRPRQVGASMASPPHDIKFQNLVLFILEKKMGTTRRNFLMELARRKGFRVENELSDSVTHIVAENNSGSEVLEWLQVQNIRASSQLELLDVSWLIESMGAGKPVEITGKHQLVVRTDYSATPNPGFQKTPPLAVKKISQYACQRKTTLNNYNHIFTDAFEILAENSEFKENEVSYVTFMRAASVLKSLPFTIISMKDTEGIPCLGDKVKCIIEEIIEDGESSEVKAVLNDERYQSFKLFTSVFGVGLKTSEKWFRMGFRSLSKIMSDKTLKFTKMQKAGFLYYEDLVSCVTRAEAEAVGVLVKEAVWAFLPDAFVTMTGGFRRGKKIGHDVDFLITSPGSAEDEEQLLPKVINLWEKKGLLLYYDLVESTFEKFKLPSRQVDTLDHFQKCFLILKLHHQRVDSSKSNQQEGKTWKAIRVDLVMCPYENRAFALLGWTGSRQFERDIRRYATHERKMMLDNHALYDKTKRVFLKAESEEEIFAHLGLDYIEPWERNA
METHOD_DESCRIPTION: TdT assay (3H-dGMP incorporation) with purified TdT
Format: biochemical, calf
TEST_CONDITIONS: 200 μM compound; 35° C., 1 hour, 10 μM 3H-dGTP; DMSO only control 12,131
QUANTITY_NAME: CMP 3H--dGMP inc.

molecule="O=c1cc(Nc2ccc3c(c2)CCC3)[nH]c(=O)[nH]1 [GW-17B, 6-(3',4'-trimethyleneanilino)uracil]" val="12,383 CMP"
molecule=O=c1cc(NCCc2ccccc2)[nH]c(=O)[nH]1 val="12,391 CMP"
molecule="O=c1cc(NCC2CCCCC2)[nH]c(=O)[nH]1 [GW-20B, 6-(cyclohexylmethylamino)uracil]" val="11,296 CMP"
molecule="CC(C)CCNc1cc(=O)[nH]c(=O)[nH]1 [GW-22A, 6-(iso-pentylamino)uracil]" val="12,005 CMP"
molecule="O=c1cc(NC2CCCCC2)[nH]c(=O)[nH]1 [GW-18B, 6-(cyclohexylamino)uracil]" val="13,442 CMP"
molecule="O=c1cc(Nc2cccc3ccccc23)[nH]c(=O)[nH]1 [GW-28A, 6-(d-naphthylamino)uracil]" val="12,038 CMP"
molecule=O=c1cc(Nc2ccccc2)[nH]c(=O)[nH]1 val="10,350 CMP"
molecule="COc1ccc(Nc2cc(=O)[nH]c(=O)[nH]2)cc1 [GW-17E, 6-(p-methoxyanilo)uracil]" val="6,980 CMP"
